target: full length active recombinant SYK enzyme (Homo sapiens); construct: full length active recombinant SYK enzyme (Millipore, Calif.); purchased Millipore; assay: Inhibition of Syk tyrosine phosphorylation activity (LANCE TR-FRET kinase assay); assay type: biochemical
measure: IC50

Some solved cases for reference:
- line notation: "Cc1cc(C)cc(Nc2nc(N[C@H](CC(C)C)C(N)=O)[nH]c(=O)c2C(N)=O)c1"
  measurement: "> 1000 nM"
- line notation: "CNC(=O)[C@@H](CC(C)C)Nc1nc(Nc2ccc3ncsc3c2)c(C(N)=O)c(=O)[nH]1"
  measurement: "10 to 100 nM"
- line notation: "COc1nc(N[C@@H](C(N)=O)c2ccccc2)nc(Nc2cccc(C)c2)c1C(N)=O"
  measurement: "100 to 1000 nM"

Can you look up IC50 on full length active recombinant SYK enzyme (Homo sapiens) for `CC(C)C[C@@H](Nc1nc(Nc2ccc3cccnc3c2)c(C(N)=O)c(=O)[nH]1)C(N)=O` ? 1 to 10 nM

Now give it for `CC(C)C[C@@H](Nc1nc(Nc2ccc3c(c2)OCCO3)c(C(N)=O)c(=O)[nH]1)C(N)=O` too. 1 to 10 nM

* * *

Molecular target: full length active recombinant SYK enzyme (Homo sapiens, UniProt P43405)
Construct: full length active recombinant SYK enzyme (Millipore, Calif.)
Assay: Inhibition of Syk tyrosine phosphorylation activity (LANCE TR-FRET kinase assay)
Procedure: This example illustrates methods for evaluating the compounds of the invention, along with results obtained for such assays. The in vitro and in vivo human Syk activities of the inventive compounds can be determined by various procedures known in the art, such as a test for their ability to inhibit the activity of human plasma Syk. […] SYK tyrosine phosphorylation activity is measured using the LANCE™ Technology developed by Perkin Elmer Life and Analytical Sciences (Boston, Mass.). […]
pIC50: −log10 of the molar value.
measure: pIC50

Some solved cases for reference:
- line notation: "CC(C)C[C@@H](Nc1nc(Nc2ccc(-n3ccnc3)cc2)c(C(N)=O)c(=O)[nH]1)C(N)=O"
  pIC50: "8.00 to 9.00"
- line notation: "CC[C@@H](Nc1nc(Nc2ccc3ncccc3c2)c(C(N)=O)c(OC)n1)C(N)=O"
  pIC50: "7.00 to 8.00"
- line notation: "CCNc1nc(Nc2cccc(C)c2)c(C(N)=O)c(OCCO)n1"
  pIC50: "< 6.00"

Consider the record given below.
Can you look up pIC50 on full length active recombinant SYK enzyme (Homo sapiens, UniProt P43405) for `CC(C)C[C@@H](Nc1nc(Nc2ccn(C)n2)c(C(N)=O)c(=O)[nH]1)C(N)=O` ? 6.00 to 7.00

* * *

biological target: full length active recombinant SYK enzyme (Homo sapiens, UniProt P43405); construct: full length active recombinant SYK enzyme (Millipore, Calif.); assay: Inhibition of Syk tyrosine phosphorylation activity (LANCE TR-FRET kinase assay)
pIC50: −log10 of the molar value.
measure: pIC50

Some solved cases for reference:
- line notation: "CC[C@@H](Nc1nc(Nc2cccc(-n3cccn3)c2)c(C(N)=O)c(=O)[nH]1)C(N)=O"
  target: "full length active recombinant SYK enzyme (Homo sapiens, UniProt P43405)"
  pIC50: "8.00 to 9.00"
- line notation: "COc1nc(Nc2ccc(N3CCOCC3)cc2)nc(Nc2cccc(C)c2)c1C(N)=O"
  target: "full length active recombinant SYK enzyme (Homo sapiens, UniProt P43405)"
  pIC50: "< 6.00"

What does the record list as pIC50 for `CC(C)C[C@@H](Nc1nc(Nc2cccc(-c3ncccc3F)c2)c(C(N)=O)c(=O)[nH]1)C(N)=O` ? 8.00 to 9.00

Now give it for `NC(=O)c1c(Nc2ccc(S(N)(=O)=O)cc2)nc(NC2CC2)[nH]c1=O` too. 7.00 to 8.00

Now give it for `CC(C)[C@@H](Nc1nc(Nc2cccc(-n3cccn3)c2)c(C(N)=O)c(=O)[nH]1)C(N)=O` too. 8.00 to 9.00

Reference source for all entries: patent US20130317029A1
